Source of measurements: paper PMC5510229

experiment: In vivo pharmacokinetics; set-up: species or system ICR mice; settings: ICR, mouse, plasma; IV 125 mg kg^−1, mice
assay-metric: clearance (mL/min/kg)
Field: numeric (mL/min/kg). Do not append units.

Prompt line: Identify the reported clearance for the following entry. CC(=O)C(C)CCC(=O)O (stereo not shown) [ERG240]
Response line: 45.6
